Measured on: MAP4K5 (human) (UniProt Q9Y4K4)
Sequence (Q9Y4K4 whole entry, looked up): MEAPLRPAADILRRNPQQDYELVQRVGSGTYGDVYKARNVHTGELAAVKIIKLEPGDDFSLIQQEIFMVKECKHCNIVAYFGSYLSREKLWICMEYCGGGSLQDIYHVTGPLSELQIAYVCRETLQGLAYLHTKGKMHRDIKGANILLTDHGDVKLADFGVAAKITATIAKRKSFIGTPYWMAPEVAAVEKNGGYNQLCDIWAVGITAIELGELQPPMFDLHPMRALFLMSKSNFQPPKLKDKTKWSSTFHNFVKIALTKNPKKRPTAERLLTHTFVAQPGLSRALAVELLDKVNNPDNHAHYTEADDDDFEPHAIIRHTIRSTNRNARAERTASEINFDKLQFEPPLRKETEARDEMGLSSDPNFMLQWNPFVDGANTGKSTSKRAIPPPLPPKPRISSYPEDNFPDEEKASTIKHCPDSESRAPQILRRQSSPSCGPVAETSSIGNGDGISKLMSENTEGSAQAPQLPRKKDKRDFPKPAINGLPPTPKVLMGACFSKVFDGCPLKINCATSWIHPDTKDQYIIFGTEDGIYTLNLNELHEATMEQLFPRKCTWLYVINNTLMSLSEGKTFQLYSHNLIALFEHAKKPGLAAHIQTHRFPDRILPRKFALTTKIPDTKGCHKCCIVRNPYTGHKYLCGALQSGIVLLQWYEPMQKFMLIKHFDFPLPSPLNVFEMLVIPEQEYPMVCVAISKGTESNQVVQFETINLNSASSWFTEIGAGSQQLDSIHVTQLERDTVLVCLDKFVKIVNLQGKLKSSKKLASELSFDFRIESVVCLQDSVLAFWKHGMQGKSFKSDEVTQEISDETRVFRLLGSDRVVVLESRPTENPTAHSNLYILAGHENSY
Test description: KINOMEscan competition binding
Reported conditions: compound 10.0 µM
Assignment: determine reported kinase still bound, per cent of control for the given compounds.
Note: a bare number is incomplete; add the unit.

Consider the following illustrative entries.
O=C1NC(=O)/C(=C/c2ccc3nccc(-c4ccncc4)c3c2)S1; 41%
CS(=O)(=O)N1CCN(Cc2cc3nc(-c4cccc5[nH]ncc45)nc(N4CCOCC4)c3s2)CC1; 100%
CNC(=O)c1cc(Oc2ccc(NC(=O)Nc3ccc(Cl)c(C(F)(F)F)c3)cc2)ccn1; 7.2%

Need kinase still bound, per cent of control for each of these compounds.
1. C=CC(=O)Nc1cc(-n2c(=O)ccc3cnc4ccc(-c5cn[nH]c5)cc4c32)ccc1C
2. CCN(CC)CCCCNc1ncc2c(n1)N(C)C(=O)N(c1c(Cl)c(OC)cc(OC)c1Cl)C2
3. CCN(CC)CCCCNc1ncc2cc(-c3cc(OC)cc(OC)c3)c(NC(=O)NC(C)(C)C)nc2n1
4. CNC(=O)c1ccc(Nc2cc(Nc3ccccc3S(=O)(=O)C(C)C)c3cc[nH]c3n2)nc1

**A:**
1: 93%; 2: 23%; 3: 100%; 4: 1.8%

Need kinase still bound, per cent of control for each of these compounds.
1. COc1cc2ncnc(-n3nc(-c4ccccn4)nc3N)c2cc1OC
2. C=CC(=O)Nc1ccc(CN(C(=O)Nc2c(Cl)c(OC)cc(OC)c2Cl)c2cc(Nc3ccc(N4CCN(C)CC4)cc3)ncn2)cc1

**A:**
1. 45%
2. 2.3%
